Each recorded value in this set is attributed to patent US20260028354A1.

Lab note: IC50 readings collected with ERα_LBD (GST) (Homo sapiens (Human), UniProt P03372) for the following compounds.
Sequence (P03372 311-547): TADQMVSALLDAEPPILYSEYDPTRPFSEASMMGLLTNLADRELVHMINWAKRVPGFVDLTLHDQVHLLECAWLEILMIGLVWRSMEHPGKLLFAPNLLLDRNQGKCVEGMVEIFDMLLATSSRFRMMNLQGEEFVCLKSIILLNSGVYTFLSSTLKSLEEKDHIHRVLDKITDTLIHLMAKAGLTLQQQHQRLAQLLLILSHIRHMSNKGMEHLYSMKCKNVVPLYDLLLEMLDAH

Known IC50 results, listed for orientation:
Compound | Target or system | IC50
COc1cc(N2CCC3(CC2)C[C@H](CN2CCN4c5cc6c(cc5OC[C@@H]4C2)C(=O)N([C@H]2CCC(=O)NC2=O)C6)CO3)ccc1[C@@H]1c2ccc(O)cc2CC[C@@H]1c1ccccc1 (single isomer, unassigned) [Compound A135] | ERα_LBD (GST) (Homo sapiens (Human), UniProt P03372) | < 10 nM
COc1cc(N2CCC3(CC2)CC(CN2CCC(c4ccc(N[C@H]5CCC(=O)NC5=O)cc4)CC2)C3)c(F)cc1[C@@H]1c2ccc(O)cc2CC[C@@H]1c1ccccc1 (single isomer, unassigned) [Compound A30] | ERα_LBD (GST) (Homo sapiens (Human), UniProt P03372) | < 10 nM
COc1cc(N2CCC3(CC2)CC(CN2CCC(c4ccc(N[C@H]5CCC(=O)NC5=O)cc4)CC2)C3)c(F)cc1[C@H]1c2ccc(O)cc2CC[C@H]1c1ccccc1 (single isomer, unassigned) [Compound A32] | ERα_LBD (GST) (Homo sapiens (Human), UniProt P03372) | > 100 nM
COc1cc(N2CCC3(CC2)CC(CN2CCN4c5ccc6c(c5OC[C@H]4C2)CN([C@H]2CCC(=O)NC2=O)C6=O)C3)ccc1[C@H]1c2ccc(O)cc2CC[C@H]1c1ccccc1 (single isomer, unassigned) [Compound A9] | ERα_LBD (GST) (Homo sapiens (Human), UniProt P03372) | 10 to 100 nM
O=C1CC[C@H](N2Cc3cc4c(cc3C2=O)OC[C@@H]2CN(C[C@@H]3COC5(C3)CN(c3ccc([C@@H]6c7ccc(O)cc7CC[C@@H]6c6ccccc6)cc3)C5)CCN42)C(=O)N1 [Compound A73] | ERα_LBD (GST) (Homo sapiens (Human), UniProt P03372) | < 10 nM

In: Please report the measured IC50 for COc1cc(N2CCC3(CC2)CC(CN2CCC4(CC2)COc2c4ccc4c2CN([C@H]2CCC(=O)NC2=O)C4=O)C3)ccc1[C@@H]1c2ccc(O)cc2CC[C@@H]1c1ccccc1 [Compound A95]
Out: < 10 nM

In: Please report the measured IC50 for O=C1CC[C@H](N2Cc3cc4c(cc3C2=O)OC[C@@H]2CN(CC3COC5(C3)CN(c3ccc([C@H]6c7ccc(O)cc7CC[C@H]6c6ccccc6)cc3)C5)CCN42)C(=O)N1 (single isomer, unassigned) [Compound A43]
Out: < 10 nM

In: Please report the measured IC50 for O=C1CC[C@H](N2Cc3c(ccc4c3OC[C@H]3CN(C[C@H]5COC6(C5)CN(c5ccc([C@@H]7c8ccc(O)cc8CC[C@@H]7c7ccccc7)cc5)C6)CCN43)C2=O)C(=O)N1 (single isomer, unassigned) [Compound A68]
Out: < 10 nM

In: Please report the measured IC50 for COc1cc(N2CCC3(CC2)CC(CN2CCN4c5cc6c(cc5OC[C@@H]4C2)C(=O)N([C@H]2CCC(=O)NC2=O)C6)C3)c(F)cc1[C@@H]1c2ccc(O)cc2CC[C@@H]1c1ccccc1 [Compound A101]
Out: < 10 nM
